What MIC was measured for each of the following?
Tested on: Vero
Assay: Minimum inhibitory concentration (MIC) required to reduce virus-induced cytopathogenicity by 50% against Parainfluenza virus-3 in African green monkey kidney (Vero B)cells
Format: functional, Chlorocebus sabaeus
Settings: Chlorocebus sabaeus; read-out: MIC

Given the entry `O=c1ccn([C@H]2O[C@H](CO)[C@H](O)[C@@H]2O)c(=O)[nH]1` , report its measured MIC.
> 400 µg/mL

Given the entry `Cc1cn([C@@H]2O[C@H](CO)[C@H](O)[C@@H]2O)c(=O)[nH]c1=O` , report its measured MIC.
> 400 µg/mL

Given the entry `NC(=O)c1ncn([C@@H]2O[C@H](CO)[C@@H](O)[C@H]2O)n1` , report its measured MIC.
70 µg/mL

Given the entry `Nc1ccn([C@@H]2O[C@H](CO)[C@H](O)[C@@H]2O)c(=O)n1` , report its measured MIC.
> 100 µg/mL

Given the entry `Cc1cn([C@H]2O[C@H](CO)[C@H](O)[C@@H]2O)c(=O)[nH]c1=O` , report its measured MIC.
> 400 µg/mL
